Hey, just so you know, these numbers are from PubChem BioAssay (NCI).

Test system: SF-268 CNS
ASSAY_REMARKS: NCI-60 one-dose screen, 48 h (100 = growth as untreated, 0 = no growth, -100 = all killed)
CONDITION_SET: 10 µM unless noted
About 83,000 compounds went through this panel and 20% of them were active in at least one assay; those are over-represented in the sample as a whole.
Please mark 1.0 if the recorded growth is equal to or greater than 80%, and 0.0 if it falls below.

>  <COMPOUND>
CC1(c2ccc(Cl)cc2)OC(=O)CC(=O)O1

>  <TARGET_OF_ASSAY>
SF-268 CNS

>  <CLASS_ASSIGNMENT>
1.0

$$$$
>  <COMPOUND>
CCCC(=O)Oc1ccc(/C(=C(\C)c2ccccc2)c2ccc(OCCN(CC)CC)cc2)cc1

>  <TARGET_OF_ASSAY>
SF-268 CNS

>  <CLASS_ASSIGNMENT>
0.0

$$$$
>  <COMPOUND>
N=C(N)c1ccc(-c2ccc(-c3cncc4ccccc34)s2)cc1F

>  <TARGET_OF_ASSAY>
SF-268 CNS

>  <CLASS_ASSIGNMENT>
0.0

$$$$
>  <COMPOUND>
NC1=C(/C(N)=N/O)C(c2ccccc2)c2ccc3ccccc3c2O1 (stereo unspecified)

>  <TARGET_OF_ASSAY>
SF-268 CNS

>  <CLASS_ASSIGNMENT>
0.0

$$$$
>  <COMPOUND>
O=c1ccn(C2CC(O)C(O)C(CO)O2)c(=O)[nH]1 (stereo unspecified)

>  <TARGET_OF_ASSAY>
SF-268 CNS

>  <CLASS_ASSIGNMENT>
1.0

$$$$

###

Tested on: T-47D breast
ASSAY_REMARKS: NCI-60 one-dose screen, 48 h (100 = growth as untreated, 0 = no growth, -100 = all killed)
CONDITION_SET: 10 µM unless noted
About 83,000 compounds went through this panel and 20% of them were active in at least one assay; those are over-represented in the sample as a whole.
Group membership follows growth per the scheme 1 = under 60%, 2 = from 60% up to 90%, 3 = 90% and over

>  <COMPOUND>
FC(F)(F)c1ccccc1-c1cn2c(ccc3ccccc32)n1

>  <CLASS_ASSIGNMENT>
3

$$$$
>  <COMPOUND>
O=S(=O)(NCCCNc1nccc(-n2ccc3cccnc32)n1)c1ccc(Br)cc1

>  <CLASS_ASSIGNMENT>
3

$$$$
>  <COMPOUND>
COc1cc(Nc2ncccc2C(=O)NCc2cn(Cc3cccc(Oc4ccccc4)c3)nn2)cc(OC)c1

>  <CLASS_ASSIGNMENT>
1

$$$$
>  <COMPOUND>
COc1ccc2c(c1)[nH]c(=O)c1c3cc(OC)ccc3cn21

>  <CLASS_ASSIGNMENT>
1

$$$$
>  <COMPOUND>
CCCCC(CC)OC(=O)C(Br)CC (stereo unspecified)

>  <CLASS_ASSIGNMENT>
3

$$$$
>  <COMPOUND>
CCOC(=O)c1cn2c3c(cc(C)cc3c1=O)C(=O)/C(=C/c1ccccc1)C2

>  <CLASS_ASSIGNMENT>
2

$$$$
>  <COMPOUND>
O=C1/C(=C/c2ccc([N+](=O)[O-])cc2)CN(C(=O)CCN2CCC(=NO)CC2)C/C1=C\c1ccc([N+](=O)[O-])cc1

>  <CLASS_ASSIGNMENT>
1

$$$$
>  <COMPOUND>
COP(=O)(OC)/C(=N\NS(=O)(=O)c1ccc(C)cc1)c1ccccc1

>  <CLASS_ASSIGNMENT>
3

$$$$
>  <COMPOUND>
NC(=O)c1c(NC(=S)Nc2ccc(OC(F)(F)F)cc2)sc2c1CCC1(C2)OCCO1

>  <CLASS_ASSIGNMENT>
2

$$$$
>  <COMPOUND>
CCOC(=O)c1ccc(NC(=O)N2CC(C)OC(C)C2)cc1 (stereo unspecified)

>  <CLASS_ASSIGNMENT>
3

$$$$
>  <COMPOUND>
COc1ccc(NC(=O)c2c(Nc3ccc(OC)cc3OC)n[nH]c2N)c(OC)c1

>  <CLASS_ASSIGNMENT>
2

$$$$
>  <COMPOUND>
CC(C)C1=CC2=C(C=O)C[C@@H]3[C@](C)(CCC[C@@]3(C)C(=O)OCC#CCN3CCCC3)[C@H]2CC1

>  <CLASS_ASSIGNMENT>
1

$$$$
>  <COMPOUND>
O=[N+]([O-])c1ccc(/C=C/C2(CCl)OCCO2)cc1

>  <CLASS_ASSIGNMENT>
3

$$$$
>  <COMPOUND>
Fc1ccc(Nc2nc(NCCNc3ccnc4cc(Cl)ccc34)nc(N3CCOCC3)n2)cc1

>  <CLASS_ASSIGNMENT>
2

$$$$
>  <COMPOUND>
CCOC(=O)c1ccc2c(c1)c1c(C)c3cccnc3c(C)c1n2C

>  <CLASS_ASSIGNMENT>
1

$$$$
>  <COMPOUND>
Cc1ccc(-c2nc(C(Cl)Cl)n3nc(-c4ccccc4)cc3n2)cc1

>  <CLASS_ASSIGNMENT>
1

$$$$
>  <COMPOUND>
COC(=O)C(Sc1ccc(Cl)cc1)C1SC(=S)N(Cc2ccccc2)C1=O (stereo unspecified)

>  <CLASS_ASSIGNMENT>
2

$$$$
>  <COMPOUND>
Cc1ccc(S(=O)(=O)NCCNc2cc(-c3cn(C(C)(C)C)nc3-c3cccc(O)c3)ccn2)cc1

>  <CLASS_ASSIGNMENT>
1

$$$$
>  <COMPOUND>
COc1ccc(N2CCN(Cc3cc(C(=O)/C=C/c4c[nH]c5ccccc45)ccc3O)CC2)cc1

>  <CLASS_ASSIGNMENT>
3

$$$$
>  <COMPOUND>
COc1ccc(S(=O)(=O)n2ccc(-c3ccc4c(c3)CCC(C)(C)O4)n2)cc1OC

>  <CLASS_ASSIGNMENT>
1

$$$$
>  <COMPOUND>
CCCCCc1cc[n+](CC(=O)c2ccc([N+](=O)[O-])cc2)cc1

>  <CLASS_ASSIGNMENT>
1

$$$$
>  <COMPOUND>
COC(OC)c1ccccc1

>  <CLASS_ASSIGNMENT>
3

$$$$

###

Tested on: BT-549 breast
ASSAY_REMARKS: NCI-60 one-dose screen, 48 h
CONDITION_SET: 10 µM unless noted
Description: Growth inhibition of the BT-549 human tumor cell line is measured as a screen for anti-cancer activity. Cells are grown in 96 well plates and exposed to the test compound for 48 hours. Compounds are tested at a single concentration, which is 10^-5 M for most compounds. The reported endpoint is percent growth (GI% or GIPRCNT), where numbers from 0 - 100% represent growth inhibition, and numbers from -100% - 0 represent cell death. For example, a value of 40 represents 60% growth inhibition. […]
Compounds without any hit were thinned out: in the full panel of roughly 83,000, 20% have a hit. Active and inactive are the calls of the source. The calls were made as follows: active = growth percent below 10; inactive = the rest.
Outcome codes: t for active, f for inactive

>  <COMPOUND>
COc1ccc(Nc2nn3c(-c4ccccc4)cc(-c4ccccc4)nc3c2C(N)=O)c(OC)c1

>  <CLASS_ASSIGNMENT>
f

$$$$
>  <COMPOUND>
COc1ccc(/C=C\c2cc(OC)c(OC)c(OC)c2)cc1OC(=O)c1cccc(Cn2cc(CCOC(=O)c3cccc(Cn4nnc5c4C(=O)c4ccccc4C5=O)c3)nn2)c1

>  <CLASS_ASSIGNMENT>
f

$$$$
>  <COMPOUND>
C=C1CCC2C3(C)COC(c4c(OC)cccc4OC)OC3CCC2(C)C1C/C=C1/C(=O)OCC1O (stereo not given)

>  <CLASS_ASSIGNMENT>
f

$$$$
>  <COMPOUND>
CC1CN(c2oc(-c3ccccc3)nc2C#N)CC(C)O1 (stereo not given)

>  <CLASS_ASSIGNMENT>
f

$$$$
>  <COMPOUND>
NC(=S)N/N=C1\CCCC(C(F)(F)F)C1 (stereo not given)

>  <CLASS_ASSIGNMENT>
f

$$$$
>  <COMPOUND>
Brc1cccc(-c2cc(-c3ccc4nccnc4c3)[nH]n2)c1

>  <CLASS_ASSIGNMENT>
f

$$$$
>  <COMPOUND>
O=C(Nc1ccncc1)C(=O)c1cn(S(=O)(=O)c2ccccc2F)c2ccccc12

>  <CLASS_ASSIGNMENT>
f

$$$$
>  <COMPOUND>
CC(=O)Oc1csc(N(C(C)=O)c2cccc(C(F)(F)F)c2)n1

>  <CLASS_ASSIGNMENT>
t

$$$$
>  <COMPOUND>
CN(C)CC(C(=O)c1ccccc1)c1ccccc1 (stereo not given)

>  <CLASS_ASSIGNMENT>
f

$$$$
>  <COMPOUND>
COc1cc(-c2nn(-c3cccc(NC(=O)Nc4cccc(C(F)(F)F)c4)c3)cc2-c2ccncc2)ccc1Cl

>  <CLASS_ASSIGNMENT>
t

$$$$
>  <COMPOUND>
O=C1NN(C(=O)c2ccc(Cl)cc2)C(c2ccccc2)=N/C1=C\c1ccc(F)cc1

>  <CLASS_ASSIGNMENT>
f

$$$$
>  <COMPOUND>
O=C1C2(c3ccccc3)C(c3ccccc3)=C(c3ccccc3)C1(c1ccccc1)C1CC=CC12 (stereo not given)

>  <CLASS_ASSIGNMENT>
f

$$$$
>  <COMPOUND>
CC(=O)OC[C@]12CC[C@H]3[C@@H](C[C@H]4O[C@]45CC=CC(=O)[C@]35C)[C@]1(O)CC[C@@]2(O)[C@@](C)(O)C1CC(C)=C(C)C(=O)O1 (stereo not given in full)

>  <CLASS_ASSIGNMENT>
t

$$$$
>  <COMPOUND>
O=c1ccn(C2CC(O)C(O)C(CO)O2)c(=O)[nH]1 (stereo not given)

>  <CLASS_ASSIGNMENT>
f

$$$$
>  <COMPOUND>
COc1ccc(/C=N\NC(=O)CN2CCN(c3cc4c(cc3F)c(=O)c(C(=O)N/N=C/c3ccc(OC)c(OC)c3)cn4C3CC3)CC2)cc1OC

>  <CLASS_ASSIGNMENT>
t

$$$$
>  <COMPOUND>
COc1ccc(Nc2[nH]n3c(=O)cc(-c4ccccc4)nc3c2C(=O)Nc2ccc(C)cc2)c(OC)c1

>  <CLASS_ASSIGNMENT>
f

$$$$
>  <COMPOUND>
c1coc(CNc2ccnc(Nc3ccc(OCCN4CCCCC4)cc3)n2)c1

>  <CLASS_ASSIGNMENT>
f

$$$$
>  <COMPOUND>
COc1cc(C2C3=C(COC3=O)Nc3cc4c(cc32)CCC4)cc2c1OCO2 (stereo not given)

>  <CLASS_ASSIGNMENT>
f

$$$$
>  <COMPOUND>
O=c1[nH]c(-c2ccccc2)nc(CN2CCCCC2)c1O

>  <CLASS_ASSIGNMENT>
f

$$$$
>  <COMPOUND>
CCN(CC)CCCC(C)Nc1c2ccc(Cl)cc2nc2cc(OC)c(OC)cc12 (stereo not given)

>  <CLASS_ASSIGNMENT>
f

$$$$
>  <COMPOUND>
CCOC(=O)c1c(NS(=O)(=O)c2ccc(C)cc2)sc2c1CCC1(C2)OCCO1

>  <CLASS_ASSIGNMENT>
f

$$$$
>  <COMPOUND>
Cc1[nH]c2ccc(F)cc2c1CCNC(=O)C1CCN(C(=O)c2ccccc2)CC1

>  <CLASS_ASSIGNMENT>
f

$$$$
>  <COMPOUND>
CCCCCCCCCCCCNC(=O)[C@H]1CSC(c2cc3ccccc3s2)N1 (stereo not given in full)

>  <CLASS_ASSIGNMENT>
t

$$$$
>  <COMPOUND>
Fc1ccc(CNCCNc2ncnc3c2cnn3-c2ccccc2)cc1

>  <CLASS_ASSIGNMENT>
f

$$$$
>  <COMPOUND>
CC(C)(C)n1cc(-c2ccnc(NCCCNS(=O)(=O)c3ccccc3)c2)c(-c2cccc(O)c2)n1

>  <CLASS_ASSIGNMENT>
f

$$$$
>  <COMPOUND>
C=C1C(=O)O[C@H]2[C@H]1CC/C(Cn1cc(CNC(=O)/C=C/c3c[nH]c4ccccc34)nn1)=C\CC[C@@]1(C)O[C@@H]21

>  <CLASS_ASSIGNMENT>
f

$$$$
>  <COMPOUND>
Cc1ccc(-c2cc3nc(-c4ccccc4)nc(C(Cl)Cl)n3n2)cc1

>  <CLASS_ASSIGNMENT>
f

$$$$
>  <COMPOUND>
c1ccc(-c2cn(-c3ccccc3)c(-c3ccccc3)n2)cc1

>  <CLASS_ASSIGNMENT>
f

$$$$
>  <COMPOUND>
COc1ccc(NC(=O)CSc2nc(-c3ccc(OC)c(OC)c3)cc(-c3cc(OC)c(OC)c(OC)c3)n2)cc1

>  <CLASS_ASSIGNMENT>
f

$$$$
>  <COMPOUND>
CC(=O)Nc1nc(N)nc(NC(C)=O)c1N=O

>  <CLASS_ASSIGNMENT>
f

$$$$
